System: YST-1
Assay: % inhibition of CellTiter-Glo viability at highest tested concentration (72 h), relative to DMSO and benzethonium chloride controls; higher = more inhibition
Definition: the class of an entry is the range in low (below 20%), medium (20% to below 80%), high (80% or more) that contains its % inhibition.

{"columns": ["compound", "categoryLabel"],
 "data": [
  ["C[C@H]1Oc2cc(cnc2N)-c2c(nn(C)c2C#N)CN(C)C(=O)c2ccc(F)cc21 (max concentration tested 1000 nM)", "low"],
  ["Cn1cncc1[C@@](N)(c1ccc(Cl)cc1)c1ccc2c(c1)c(-c1cccc(Cl)c1)cc(=O)n2C [Tipifarnib] (max concentration tested 10000 nM)", "medium"],
  ["CC(C)[C@H](C(=O)Nc1ccc(C(=O)NO)cc1)c1ccccc1 [AR-42] (max concentration tested 10000 nM)", "high"],
  ["NC(=O)c1cccc2cn(-c3ccc(C4CCCNC4)cc3)nc12 (stereo not drawn) [Niraparib] (max concentration tested 10000 nM)", "medium"],
  ["C#Cc1cccc(Nc2ncnc3cc4c(cc23)OCCOCCOCCO4)c1 [Icotinib] (max concentration tested 10000 nM)", "medium"],
  ["C/C=C1\\NC(=O)[C@H]2CSSCC/C=C/[C@H](CC(=O)N[C@H](C(C)C)C(=O)N2)OC(=O)[C@H](C(C)C)NC1=O [Romidepsin] (max concentration tested 1000 nM)", "high"],
  ["CCN1CCN(Cc2ccc(Nc3ncc(F)c(-c4cc(F)c5nc(C)n(C(C)C)c5c4)n3)nc2)CC1 [Abemaciclib] (max concentration tested 2500 nM)", "medium"],
  ["CC[C@H](C)C(=O)O[C@H]1C[C@@H](C)C=C2C=C[C@H](C)[C@H](CC[C@@H]3C[C@@H](O)CC(=O)O3)[C@H]21 [Lovastatin] (max concentration tested 10000 nM)", "low"],
  ["Oc1ncnc2[nH]ncc12 [Allopurinol] (max concentration tested 10000 nM)", "low"],
  ["CN(C)Cc1c(C(=O)NCCOc2ccc(C(=O)NO)cc2)oc2ccccc12 [Abexinostat] (max concentration tested 10000 nM)", "high"],
  ["CCS(=O)(=O)N1CC(CC#N)(n2cc(-c3ncnc4[nH]ccc34)cn2)C1 [Baricitinib] (max concentration tested 2500 nM)", "low"]
]}

###

Entries annotated with measured drug sensitivity score
System: HSC1 (primary human Schwann cells)
Assay: drug sensitivity score (DSS, CellTiter-Glo viability, 72 h) (DSS (dimensionless)); higher = more sensitive; extreme values may be limits of the assay
valueKind: drug sensitivity score

{"columns": ["molecule", "valueKind", "reading"],
 "data": [
  ["C[C@H]1C=C2C(=O)O[C@H]3CC[C@@H](C1)[C@@]23O [Galiellalactone] (max concentration tested 50000 nM)", "drug sensitivity score", 11.2],
  ["Cc1cccc(-c2nn3c(c2-c2ccnc4ccc(C(N)=O)cc24)CCC3)n1 [Galunisertib] (max concentration tested 1000 nM)", "drug sensitivity score", 0],
  ["FC(F)c1nc2ccccc2n1-c1nc(N2CCOCC2)nc(N2CCOCC2)n1 [ZSTK474] (max concentration tested 10000 nM)", "drug sensitivity score", 8.75],
  ["CNC(=O)c1cccc(-c2ccc3c(N4CCOC[C@@H]4C)nc(N4CCOC[C@@H]4C)nc3n2)c1 [AZD2014] (max concentration tested 10000 nM)", "drug sensitivity score", 15.2],
  ["Oc1ncnc2[nH]ncc12 [Allopurinol] (max concentration tested 10000 nM)", "drug sensitivity score", 0],
  ["C#Cc1cccc(Nc2ncnc3cc(OCCOC)c(OCCOC)cc23)c1 [Erlotinib] (max concentration tested 10000 nM)", "drug sensitivity score", 5.2]
]}
